Test target: T1, alcalase (trade name "Alcalase 2.5L", Novozymes) (UniProt P00780)
T1 sequence (looked up): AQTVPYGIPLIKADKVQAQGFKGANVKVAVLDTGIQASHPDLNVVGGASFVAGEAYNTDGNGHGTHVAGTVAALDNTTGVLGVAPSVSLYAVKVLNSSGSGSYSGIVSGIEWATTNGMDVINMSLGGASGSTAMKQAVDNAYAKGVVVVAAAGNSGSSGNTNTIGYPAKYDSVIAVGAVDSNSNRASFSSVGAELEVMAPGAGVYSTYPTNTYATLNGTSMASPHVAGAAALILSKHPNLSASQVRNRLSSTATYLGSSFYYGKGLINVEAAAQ
Run description: cell-based or functional assay
Observed property: Remaining activity (%) immediately after preparation

Binder	Number
proteinaceous protease inhibitor of SEQ ID NO:28 (protein) TDTGDHHNQKTEWPELVGKSVEEAKKVILQDKSEAQIVVLPVGTIVTMEGRIDRVRLFVDSLDKIAQVPRVG	18
proteinaceous protease inhibitor of SEQ ID NO:9 (protein) TDTGDHHNQKTEWPELVGKSVEEAKKVILQDKSEAQIVVLPVGTIVTMEARIDRVRLFVDSLDKIAQVPRVG	18
proteinaceous protease inhibitor of SEQ ID NO:13 (protein) TDTGDHHNQKTEWPELVGKSVEEAKKVILQDKSEAQIVVLPVGTIVTMEYKIDRVRLFVDSLDKIAQVPRVG	4
proteinaceous protease inhibitor of SEQ ID NO:26 (protein) TDTGDHHNQKTDWPELVGKSVEEAPKVILQDKSEAPIAVLPVGTLVTAEAAAARVRLFVDSLDKIAQVPAVG	19
proteinaceous protease inhibitor of SEQ ID NO:22 (protein) TDTGDHHNQKTEWPELVGKSVEEAKKVILQDKSEAQIAVLPVGTIVTMEYAADRVRLFVDSLDKIAQVPRVG	1

a = proteinaceous protease inhibitor of SEQ ID NO:5 (protein) TDTGDHHNQKTEWPELVGKSVEEAKKVILQDKSEAQILVLPVGTIVTMEYRIDRVRLFVDSLDKIAQVPRVG
b = proteinaceous protease inhibitor of SEQ ID NO:23 (protein) TDTGDHHNQKTEWPELVGKSVEEAKKVILQDKSEAQIAVLPVGTIVTMEYRAARVRLFVDSLDKIAQVPRVG
Exam item: Task for the reader: decide whether a or b has the larger Remaining activity (%) immediately after preparation. When you have decided, please share the label of that item.
Marked response: a
(a: 11%, b: 1%)

A = proteinaceous protease inhibitor of SEQ ID NO:32 (protein) MSSVEKKPEGVNTGAGDRHNLKTEWPELVGKSVEEAKKVILQDKSEAQIIVLPVGTIVTMEARIDRVRLFVDKLDNIAQVPRVG
B = proteinaceous protease inhibitor of SEQ ID NO:8 (protein) TDTGDHHNQKTEWPELVGKSVEEAKKVILQDKSEAQIVVLPVGTIVTGEYRIDRVRLFVDSLDKIAQVPRVG
Exam item: Returns: the argument ( A or B ) having the larger Remaining activity (%) immediately after preparation. Returns: label corresponding to the selected item.
Marked response: B
